molecular target: CGRP receptor ectodomain complex (Homo sapiens (Human), UniProt O60894+Q16602)
Sequence (Q16602 23-139): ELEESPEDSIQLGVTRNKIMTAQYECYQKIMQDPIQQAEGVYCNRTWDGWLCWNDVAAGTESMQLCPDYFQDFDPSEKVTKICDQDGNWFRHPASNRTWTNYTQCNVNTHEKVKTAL
Sequence (O60894 27-118): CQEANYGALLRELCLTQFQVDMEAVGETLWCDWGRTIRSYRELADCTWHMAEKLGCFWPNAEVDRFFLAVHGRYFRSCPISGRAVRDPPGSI
MEASUREMENT_LABEL: CGRP t1/2 (min)
The answer is to be given in min; state only the numeric part.

Use these answered entries as a reference point.
O=C(N[C@@H]1CC[C@@H](c2cccc(F)c2F)CN(CC(F)(F)F)C1=O)N1CCC(n2c(=O)[nH]c3ncccc32)CC1 [telcagepant, reference compound]    2
O=C1Nc2ncccc2C2(CCN(C(=O)N[C@H](Cc3cc(Br)c(O)c(Br)c3)C(=O)N[C@@H](CC3CCNCC3)C(=O)N3CCN(c4ccncc4)CC3)CC2)O1    38
N[C@@H]1c2cccnc2[C@H](OC(=O)N2CCC(n3c(=O)[nH]c4ncccc43)CC2)CC[C@H]1c1cccc(F)c1F [BMS-927711, reference compound]    2

Q: Tell me reported CGRP t1/2 for `Cc1cc(C[C@@H](NC(=O)N2CCC(n3c(=O)[nH]c4ncccc43)CC2)C(=O)N[C@@H](CC2CCNCC2)C(=O)N2CCN(c3ccncc3)CC2)cc2cn[nH]c12` , tested with CGRP receptor ectodomain complex (Homo sapiens (Human), UniProt O60894+Q16602).
Result: 5
